system: BMPR1A; conditions: concentration: 1 μM,replicates: in singlicate; n = 1;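 note: KINOMEscan kinase panel screen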
Kindly supply the reported %Inh values for the records listed here.
Just the number in %, nothing appended.

Cn1ccc2ncnc(Oc3ccc(NC(=O)Nc4cncc(C(F)(F)F)c4)c(Cl)c3)c21 has a reported %Inh of 0

NC(=O)Nc1sc(-c2ccc(F)cc2)cc1C(N)=O has a reported %Inh of 6

Cc1n[nH]c2cc(Nc3ccnc(Nc4cccc(CN5CCOCC5)c4)n3)ccc12 has a reported %Inh of 0

CC(=O)Nc1ccc(-c2cc3ncnc(SCC(=O)O)c3s2)cc1 has a reported %Inh of 8

CN(c1cccc(CNc2nc(Nc3ccc4c(c3)CC(=O)N4)ncc2C(F)(F)F)c1)S(C)(=O)=O has a reported %Inh of 0

COC(=O)Nc1nc2cc(Oc3ccc(NC(=O)Nc4cc(C(F)(F)F)ccc4Cl)cc3)ccc2[nH]1.Cl has a reported %Inh of 0

COC(=O)c1cccc(NC(=O)NC2CCN(c3ccnc(NCc4ccc(F)cc4)n3)CC2)c1 has a reported %Inh of 0

Cc1cccc(-c2nc(Nc3ccncc3)c3sccc3n2)n1 has a reported %Inh of 4

CC(C)c1nc(-c2cccc(NS(=O)(=O)c3ccccc3)c2)c(-c2ccnc(Nc3ccc4c(c3)CN(C)CC4)n2)s1 has a reported %Inh of 81

Cc1nnc(-c2ccc3occ(-c4ccc(S(C)=O)cc4)c3n2)o1 (centres unmarked) has a reported %Inh of 0

O=C(Nc1cccc(Oc2ccc3nccn3n2)c1)Nc1cccc(C(F)(F)F)c1 has a reported %Inh of 0

C[C@@H]1CCN(C(=O)N2CCCC2)C[C@@H]1N(C)c1ncnc2[nH]ccc12 has a reported %Inh of 0

CN(c1ccc2c(c1)nc(NCc1ccc(F)cc1)n2C)c1ccnc(Nc2ccc(CS(C)(=O)=O)cc2)n1.Cl has a reported %Inh of 16

N#Cc1cccc(C(=O)NC2CCN(c3ccnc(Nc4ccc(F)cc4)n3)C2)c1 (centres unmarked) has a reported %Inh of 0

Cc1ccc(C(=O)Nc2ccc(Oc3ccc4nc(NC(=O)C5CC5)cn4c3)c(F)c2)c(=O)n1-c1ccccc1 has a reported %Inh of 0

Cc1ccc(Nc2ccnc(Nc3ccc4c(c3)CS(=O)(=O)C4)n2)cc1O.Cl has a reported %Inh of 85

Cn1ccc2ncnc(Oc3ccc(NC(=O)Nc4cccc(C(F)(F)F)c4)c(F)c3)c21 has a reported %Inh of 0

C[C@@H](Oc1cc(-n2cnc3cc(-c4cnn(C)c4)ccc32)sc1C(N)=O)c1ccccc1Cl has a reported %Inh of 19

COc1cc2ncn(-c3cc(OCC4CCCCC4)c(C(N)=O)s3)c2cc1OC has a reported %Inh of 0

O=C(Nc1ccccc1)c1cccc(Oc2ccc3nccn3n2)c1 has a reported %Inh of 0

Cc1cccc2c(-c3ccncc3)c(-c3ccc(F)cc3)nn12.Cl has a reported %Inh of 0

CC(C)S(=O)(=O)N1CCN(Cc2ccc3c(c2)nc(NC(=O)c2ccsc2)n3C[C@H](O)c2ccccc2)CC1 has a reported %Inh of 15

Cn1ccc2ncnc(Oc3ccc(NC(=O)Nc4cccc(C(F)(F)F)c4)c(Cl)c3)c21 has a reported %Inh of 15

CN(c1ccccc1CNc1nc(Nc2ccc3c(c2)CC(=O)N3)ncc1C(F)(F)F)S(C)(=O)=O has a reported %Inh of 12

CSc1nccc(-c2c(-c3ccc(F)cc3)ncn2CCCN2CCOCC2)n1.Cl has a reported %Inh of 0

Cn1ccc2ncnc(Oc3ccc(NC(=O)Nc4ccnc(C(F)(F)F)c4)c(Cl)c3)c21 has a reported %Inh of 0

CCCC(=O)Nc1n[nH]c2ncccc12 has a reported %Inh of 0

COC(=O)c1cccc(NC(=O)NC2CCN(c3ccnc(Nc4cc(OC)c(OC)c(OC)c4)n3)C2)c1 (centres unmarked) has a reported %Inh of 11

NC(=O)c1ccc(-c2cc3ncnc(SCC(=O)O)c3s2)cc1 has a reported %Inh of 0
